System: SF-268 CNS
measurementDescription: NCI-60 one-dose screen, 48 h (100 = growth as untreated, 0 = no growth, -100 = all killed)
experimentalConditions: 10 µM
About 83,000 compounds went through this panel and 20% of them were active in at least one assay; those are over-represented in the sample as a whole.
// reported growth for each item listed

molecule: O=C1/C(=C\c2ccc(Cl)cc2)CN(C(=S)Nc2ccccc2)C/C1=C\c1ccc(Cl)cc1
growth / %: -72.4

molecule: COc1ccc(Cl)cc1C(=O)Nc1nc2ccc(Cl)cc2s1
growth / %: 83.2

molecule: CCN(CC)CCC(CNc1c(C)cnc2cc(Cl)ccc12)c1ccc(Cl)cc1 (configuration not stated)
growth / %: 67.5

molecule: COc1ccc(-c2ccc(-c3ccc(C(=N)N)cn3)o2)cc1
growth / %: 81.2

molecule: CN(C)c1ccc(Cc2ccc(N(C)C)cc2Cl)c(Cl)c1
growth / %: 103

molecule: CCCCCCN1C(=O)C2=C(c3ccc(Cl)cc3)Nc3c(c(C)nn3-c3ccccc3)C2c2ccccc21 (configuration not stated)
growth / %: 103

molecule: COc1cc(NC(=O)CSc2nc3ccccc3c(=O)n2CCc2ccccc2)cc(OC)c1OC
growth / %: 13.9

molecule: CCCCOC(=O)Oc1ccc(C(=O)Oc2ccc(OCC)cc2)cc1
growth / %: 95.5

molecule: CC(C)(C)c1cc(Br)cc(C(C)(C)C)c1O
growth / %: 113

molecule: O=C(O)c1ccc(P(=O)(O)O)c([N+](=O)[O-])c1
growth / %: 110

molecule: CCC(=O)N1C/C(=C/c2ccc(Br)cc2)C(=O)/C(=C/c2ccc(Br)cc2)C1
growth / %: -38.5

molecule: c1ccc(CNc2ncnc3scc(-c4cccs4)c23)nc1
growth / %: 79.7

molecule: COc1cc(C(=C2O[C@@H]([C@H]3COC(C)(C)O3)[C@H]3OC(C)(C)O[C@@H]23)c2cc(OC)c(OC)c(OC)c2)cc(OC)c1OC
growth / %: 113

molecule: N#CCCN(NC(=O)OCc1ccccc1)C(=O)OCc1ccccc1
growth / %: 106

molecule: COc1ccc(-c2nn(-c3cccc(NC(=O)Nc4cccc(C(F)(F)F)c4)c3)cc2-c2ccncc2)cc1Cl
growth / %: 23.5

molecule: CCN(CC)CCNC(=O)c1ccc(NC(C)=O)cc1
growth / %: 109

molecule: O=[N+]([O-])c1cccc(N=Cc2ccc3c(c2)OCO3)c1
growth / %: 114

molecule: NC1=NC(=O)C(c2ccccc2)(c2ccccc2)S1
growth / %: 113

molecule: CC1CN(Cc2ccccc2)C(=O)NC1=O (configuration not stated)
growth / %: 103

molecule: CC(C)(Cl)CCC1=C(Cl)C(=O)c2ccccc2C1=O
growth / %: 65.7

molecule: CCN(CC)CCOc1nc2ccccc2c2c1-c1ccc(OC)cc1C2=O
growth / %: -6.65

molecule: CC1(C)Cc2c(sc3ncn4nc(-c5ccc(O)cc5)nc4c23)CO1
growth / %: 64.1

molecule: COc1ccc(C2=NN(C(=O)c3ccc(S(C)(=O)=O)cc3)C(c3ccc(OC)c(OC)c3)C2)c(OC)c1 (configuration not stated)
growth / %: 89

molecule: COc1ccc(-n2c(SCc3cc(OC)c(OC)c(OC)c3)nc3ccc(C)cc3c2=O)cc1
growth / %: 80.6

molecule: Cc1cs/c(=N\NC(=O)c2cc(-c3cc4ccccc4o3)nn2-c2ccccc2)n1-c1ccccc1
growth / %: 92.5

molecule: CN1CCC2(CC1)NC(=O)c1c(c3ccc(Cl)c(Cl)c3n1C)C2C#N (configuration not stated)
growth / %: 67.4

molecule: COc1ccc(/C=C2/CN(C(=O)c3ccc(C)cc3)C/C(=C\c3ccc(OC)cc3)C2=O)cc1
growth / %: 87.4

molecule: O=C(O)CN1C(=O)c2cccc3cccc(c23)C1=O
growth / %: 122

molecule: Cc1ccc(-c2n[nH]c(=O)c3noc(-c4ccc(C)cc4)c23)cc1
growth / %: 53.5

molecule: O=C1OCC2=C1C(c1cccc(Br)c1)c1cc3c(cc1N2CCO)CCC3 (configuration not stated)
growth / %: 14.4

molecule: Cc1ccc(Nc2nnc(-c3cc(-c4ccncc4)n(-c4ccccc4)n3)s2)cc1
growth / %: 113

molecule: O=C(Nc1ccncc1)C(=O)c1cn(S(=O)(=O)c2cc(Cl)cc(Cl)c2)c2ccccc12
growth / %: 94.3

molecule: COc1ccc(-c2csc(NC(=O)CSc3nc(C)c(-c4ccccc4)n3Nc3ccccc3)n2)cc1
growth / %: 44.7

molecule: COc1cc(-c2cc(/C=C/C(=O)c3ccc(Cl)c(Cl)c3)[nH]n2)cc(OC)c1OC
growth / %: 104

molecule: O=C(Nc1ccccc1)Nc1cccc(-n2cc(-c3ccncc3)c(-c3ccc(O)c(Cl)c3)n2)c1
growth / %: 71.7

molecule: COc1cc(Cl)cc(-c2nn(-c3cccc(NC(=O)Nc4cc(C(F)(F)F)cc(C(F)(F)F)c4)c3)cc2-c2ccncc2)c1
growth / %: 14.2

molecule: CCCC1(CC(=O)O)OCCc2c1[nH]c1ccccc21 (configuration not stated)
growth / %: 103
